- MEASURED TARGET: DNA topoisomerase 2-alpha (Homo sapiens, UniProt P11388)
- Sequence (P11388 whole entry): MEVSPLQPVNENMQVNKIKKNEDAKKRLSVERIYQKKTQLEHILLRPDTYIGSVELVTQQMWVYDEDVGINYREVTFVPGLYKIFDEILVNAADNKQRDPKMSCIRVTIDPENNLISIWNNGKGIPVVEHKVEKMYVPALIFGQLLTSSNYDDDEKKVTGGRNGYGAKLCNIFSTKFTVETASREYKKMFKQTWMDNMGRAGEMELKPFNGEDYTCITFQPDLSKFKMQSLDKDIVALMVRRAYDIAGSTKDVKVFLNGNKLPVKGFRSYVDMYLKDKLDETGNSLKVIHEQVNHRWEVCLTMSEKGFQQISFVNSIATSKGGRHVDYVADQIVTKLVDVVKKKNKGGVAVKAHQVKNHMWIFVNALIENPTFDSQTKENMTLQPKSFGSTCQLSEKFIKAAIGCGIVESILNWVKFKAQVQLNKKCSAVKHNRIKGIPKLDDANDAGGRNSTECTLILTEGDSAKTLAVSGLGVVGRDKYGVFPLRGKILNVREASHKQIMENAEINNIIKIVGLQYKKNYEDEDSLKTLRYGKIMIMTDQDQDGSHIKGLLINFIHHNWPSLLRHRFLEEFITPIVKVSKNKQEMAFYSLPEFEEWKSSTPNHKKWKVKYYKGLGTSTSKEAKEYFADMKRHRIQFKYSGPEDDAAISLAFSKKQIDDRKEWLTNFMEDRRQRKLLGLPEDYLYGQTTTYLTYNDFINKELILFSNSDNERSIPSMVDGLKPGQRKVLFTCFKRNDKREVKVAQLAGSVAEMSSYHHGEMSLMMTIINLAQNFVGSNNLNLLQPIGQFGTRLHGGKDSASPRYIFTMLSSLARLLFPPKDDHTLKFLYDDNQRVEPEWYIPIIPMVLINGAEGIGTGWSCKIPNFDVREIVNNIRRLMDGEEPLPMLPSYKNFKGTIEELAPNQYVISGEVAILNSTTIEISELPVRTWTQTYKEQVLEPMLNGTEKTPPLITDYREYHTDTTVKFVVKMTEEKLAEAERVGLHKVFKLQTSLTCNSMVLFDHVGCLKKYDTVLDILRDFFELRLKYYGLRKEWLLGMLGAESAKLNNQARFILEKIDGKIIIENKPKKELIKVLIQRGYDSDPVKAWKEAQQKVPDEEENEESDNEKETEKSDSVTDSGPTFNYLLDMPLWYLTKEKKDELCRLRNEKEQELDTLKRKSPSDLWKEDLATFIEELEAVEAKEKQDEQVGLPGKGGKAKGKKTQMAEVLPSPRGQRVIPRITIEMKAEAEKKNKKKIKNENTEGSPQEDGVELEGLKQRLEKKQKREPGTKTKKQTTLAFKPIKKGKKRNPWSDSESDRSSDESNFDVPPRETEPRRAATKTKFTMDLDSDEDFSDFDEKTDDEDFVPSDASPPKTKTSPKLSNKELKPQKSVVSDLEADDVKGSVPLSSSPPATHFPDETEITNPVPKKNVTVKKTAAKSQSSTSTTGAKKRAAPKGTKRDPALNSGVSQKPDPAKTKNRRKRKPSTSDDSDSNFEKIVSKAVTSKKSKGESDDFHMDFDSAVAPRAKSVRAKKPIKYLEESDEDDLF
- MEASUREMENT NOTES: Inhibition of human DNA topoisomerase 2 alpha assessed as relaxation of supercoiled plasmid pNO1 DNA incubated for 30 mins by fluorescence based analysis
pIC50: −log10 of the molar value.
QUANTITY: pIC50

| COMPOUND | OBSERVED VALUE |
| --- | --- |
| Cc1[nH]c(C(=O)Nc2ccc(C(=O)NC3CCNCC3)cc2OC(C)C)c(Cl)c1Cl | 5.35 |
| Cc1[nH]c(C(=O)Nc2ccc(C(=O)NCC(=O)O)cc2OC(C)C)c(Cl)c1Cl | 5.14 |
| CCNC(=O)Nc1ccc(OC2CCNCC2)c(NC(=O)c2[nH]c(C)c(Cl)c2Cl)c1 | 4.42 |
| Cc1[nH]c(C(=O)Nc2ccc(C(=O)NC3CCCNC3)cc2OC(C)C)c(Cl)c1Cl.Cl (stereo not given) | 5.89 |
| Cc1[nH]c(C(=O)Nc2ccccc2OCc2cccc(C(=O)NC3CCCNC3)c2)c(Cl)c1Cl.Cl (stereo not given) | 5.11 |

From: ChEMBL document CHEMBL5346880
